Entries and their activity change, negative = inhibition
Experiment: NFAT Signaling Pathway (AID 444);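 further: carbachol stimulus at about its EC50 of 1 µM final; on the % scale 0 is the no-effect control and ±100 the full control effect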
Details: Jurkat NFAT-bla M1, carbachol, beta-lactamase ratio, 5 h; at 7.69 µM (top of the series) unless noted
Records with an inconclusive call do not appear.
State the answer as a number, implicitly in %.

# annotated cases, reported activity change, negative = inhibition shown
chem-smiles: N#CC1(Nc2ccc(-c3ccc(NC4(C#N)CCCC4)cc3)cc2)CCCC1
measured-endpoint: activity change, negative = inhibition
measurement-units: %
meas-value: 14.8

chem-smiles: c1ccc2c(c1)-c1nc3ccccc3cc1[C@H]2N1CCOCC1
measured-endpoint: activity change, negative = inhibition
measurement-units: %
meas-value: -6.28

chem-smiles: COc1ncc2nc(-c3ccc(Cl)cc3)c(=O)n(C[C@H]3CCCO3)c2n1
measured-endpoint: activity change, negative = inhibition
measurement-units: %
meas-value: -7.47

chem-smiles: CC(C)=CCNc1ncnc2nc[nH]c12
measured-endpoint: activity change, negative = inhibition
measurement-units: %
meas-value: 6.81

chem-smiles: CC1(C)O[C@@H]2O[C@H]([C@@H]3COC(C)(C)O3)[C@H](N)[C@H]2O1
measured-endpoint: activity change, negative = inhibition
measurement-units: %
meas-value: 10.1

chem-smiles: Nc1nc2c(ncn2[C@@H]2C=C[C@@H](CO)C2)c(=O)[nH]1
measured-endpoint: activity change, negative = inhibition
measurement-units: %
meas-value: 10.3

chem-smiles: c1ccc(-c2nnn(CCN3CCCCC3)n2)cc1
measured-endpoint: activity change, negative = inhibition
measurement-units: %
meas-value: -5.15

chem-smiles: O=C(CN1C(=O)c2ccccc2C1=O)NC1(C(=O)O)CCCC1
measured-endpoint: activity change, negative = inhibition
measurement-units: %
meas-value: -0.506

Query: Give the value of activity change, negative = inhibition reported for the following: `NC(N)=NC(N)=Nc1ccc(C(=O)O)cc1`
Response: 6.33

Query: // fetch activity change, negative = inhibition given entry `COc1cc(C)cc(OC)c1/C=C\C(=O)O`
Response: 8.76

Query: Name the recorded activity change, negative = inhibition of the compound listed here: `Cc1noc(C)c1C(=O)N1CCC[C@@]2(CCN(c3cccc(-c4ccccc4)c3)C2)C1`
Response: -20.7

====

Tested on: CP286
Test: qHTS profiling for inhibitors of Plasmodium falciparum proliferation (AID 504749); further: nearly all actives have a fitted effect of over 60% in size
Details: P. falciparum in erythrocytes, SYBR Green DNA, 72 h; series mostly up to 28.7 µM
Inconclusive results are not listed. The source made the active and inactive calls. Calls come from the whole dose curve; as a rule, active = well fitted inhibition curve with a large enough effect; inconclusive = small, poorly fitted or top-dose-only effect; inactive = flat fitted curve, though single readings scatter.
The reply should be one of these categories: active, inactive

compound: OC[C@H](S)CS
group: active
//
compound: NS(=O)(=O)c1cc2c(cc1Cl)N[C@H](Cc1ccccc1)NS2(=O)=O
group: inactive
//
compound: CC(C)(C)c1ccc(CN2CCN([C@H](c3ccccc3)c3ccc(Cl)cc3)CC2)cc1
group: active

Query: Please share the test call associated with `COc1cc2nc(N(C)CCCNC(=O)[C@@H]3CCCO3)nc(N)c2cc1OC` .
Response: inactive

====

Potency values by entry
Target: Lysosomal acid glucosylceramidase (Homo sapiens) (UniProt P04062)
Sequence (P04062 whole entry, looked up): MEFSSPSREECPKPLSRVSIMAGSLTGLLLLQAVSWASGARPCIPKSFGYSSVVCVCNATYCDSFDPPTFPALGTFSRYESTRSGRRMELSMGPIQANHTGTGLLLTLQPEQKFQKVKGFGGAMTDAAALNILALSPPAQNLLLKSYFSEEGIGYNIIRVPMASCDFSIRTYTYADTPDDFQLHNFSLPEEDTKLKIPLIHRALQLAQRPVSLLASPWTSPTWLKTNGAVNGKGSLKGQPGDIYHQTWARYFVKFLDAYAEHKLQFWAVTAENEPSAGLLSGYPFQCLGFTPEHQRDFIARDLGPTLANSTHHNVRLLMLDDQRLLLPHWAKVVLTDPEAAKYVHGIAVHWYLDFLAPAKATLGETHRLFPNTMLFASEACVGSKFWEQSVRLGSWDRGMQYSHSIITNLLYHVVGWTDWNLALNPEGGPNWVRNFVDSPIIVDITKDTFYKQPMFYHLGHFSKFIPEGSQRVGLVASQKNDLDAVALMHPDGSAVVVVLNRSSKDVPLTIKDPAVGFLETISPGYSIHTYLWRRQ
Test: Glucocerebrosidase-p2 (AID 348); further: potency means the concentration at half of the fitted maximal effect
Settings: purified GBA, blue fluorogenic substrate, 40 min
Calls of active or inactive are those of the source. No stated cut-off is given here; in the data, active means potency below about 10 µM; inactive means the rest.

Worked cases, answers included:
compound: Clc1ccc(C=Nc2ccc3c(c2)Cc2ccccc2-3)c(Cl)c1
Potency: > 11.4 µM (inactive)

compound: NS(=O)(=O)c1ccc(N=Nc2nc3[nH]cnc(=S)c3[nH]2)cc1
Potency: > 11.4 µM (inactive)

compound: O=S(=O)(O)n1ccnc1 (tested in a mixture with another compound)
Potency: > 11.4 µM (inactive)

compound: Cc1ccc(S(=O)(=O)N[C@H](C(=O)O)C(C)C)cc1
Potency: > 11.4 µM (inactive)

compound: NCOC(=O)Cc1ccc(Br)cc1
Potency: > 11.4 µM (inactive)

Okay, now this compound:
Query: Write Potency of `C[C@@H](N1CCOCC1)[C@@](O)(c1ccccc1)c1ccccn1` ; system used: Lysosomal acid glucosylceramidase (Homo sapiens) (UniProt P04062)
Response: > 11.4 µM (inactive)
